Sourced from the supplement of paper PMC9170038

test system: MS2 coat protein; experiment: apparent KD of MS2 coat protein; designed switch direction (-1 OFF switch, 1 ON switch): -1; higher = weaker reporter binding; conditions: input ligand: FMN 200 uM
TEST READOUT: apparent KD of MS2 coat protein (nM)
Expressed in nM, but write only the number.

Worked set:
SEQUENCE CHAIN	SCALE UNIT	apparent KD of MS2 coat protein
GUUAACGAUCAGGAUAUAUCAAAUCAUAGCUUGAUAGAAGGGAUCACAUGAGGAUCACCCAUGUGAUCUUCUUU [jl-ex6-4.14 ViennaUCT mod] (Eterna round: R97, puzzle: Exclusion 6)	nM	15.3
UAUUGCGAGUGAGGAUAUGACAUGAGGAUCACCCAUGUAAAGGGAGUUGGCUAUAUAGCAAGUUUUCAGAAGGCACUACUGUAU [JR_ExcNG2_Sub007] (Eterna round: R96, puzzle: Exclusion NG 2)	nM	114
GCGUGGACUGAGGAUAUCCGAACGGUGCACGGAGGAGAAGGUAGGACAUGAGGAUCACCCAUGUGAACCUAGAU [Ceinormaat] (Eterna round: R97, puzzle: Exclusion 6)	nM	20.6
GAUAGAGCAGGAUAUCGAGAUCCGCACAUGAGGAUCACCCAUGUUCGGUCGAAAGACCGACGAGAAGGGCUGUAUC [Omei Ex5 E7] (Eterna round: R97, puzzle: Exclusion 5)	nM	838
GCACGACAUGAGGAUCACCCAUGUGAGGAUAUUUAGACGCCUGUGAAUGCAGCCAUUUAGAGAAGGCAUUGGGU [Eternabot (L1) Solution 99] (Eterna round: R97, puzzle: Exclusion 1)	nM	129
CUGUACUGAGGAUAUACAUGAGGAUCACCCAUGUUCCAAGGCUAGGAAACUAGCAAAAGUAGAAGGCAGUACAG [Mat - Exclusion 3 - Eli Mod - D55] (Eterna round: R97, puzzle: Exclusion 3)	nM	556
ACAUGACUGCUAGGAUAUAGAUGACAUGAGGAUCACCCAUGUUGUCCCAUGUUGAUGGAAACCGACUAGAAGGAGCAGCAUAUG [Ex NG2 #11] (Eterna round: R96, puzzle: Exclusion NG 2)	nM	47.4
CUGCUCCGUGUAGGAUAUGCGCGCAACCAACGCGCAGAAGGACAUGAGGAUCACCCAUGUAUGUUAUUAUCACGUGAGGCGCAG [Design 33] (Eterna round: R96, puzzle: Exclusion NG 1)	nM	28.9

Need apparent KD of MS2 coat protein, item UCUAACCAUGUAGGAUAUGCGUGGCUAAGCUAUGCAGAAGGACAUGAGGAUCACCCAUGUGCCUCCGUCUGCGUACAGUCGGCU [EXclNG1-LROPPY01] (Eterna round: R96, puzzle: Exclusion NG 1)
15.5

Subsequent entry: CCUCGACAUGAGGAUCACCCAUGUGAGGAUAUGACCUUAAAAGCGUGAGCAGUUUCUAUCAGAAGGCGCGUAGG [salish99_ex1_r4_071] (Eterna round: R97, puzzle: Exclusion 1)
15.9

----------
test system: MS2 coat protein; assay: apparent KD of MS2 coat protein, switch OFF state (with FMN for OFF switches, without FMN for ON switches); designed switch direction (-1 OFF switch, 1 ON switch): 1; higher = weaker reporter binding; conditions: FMN input: 0 or 200 uM; Eterna round: R93 (includes R88 designs)
TEST READOUT: apparent KD of MS2 coat protein
Please answer using a numeric value trailed by its unit.

Here's what some known entries look like.
SEQUENCE CHAIN	MEASURED TARGET	apparent KD of MS2 coat protein
AGGAAACAUGAGGAUCACCCAUGUAAAAAUAUCACAGGAUAUGGAAACACGAAAGUGAAACCAGAAGGGUGAAAAG [77%, Mat - Mod of Eli, 13]	MS2 coat protein	32 nM
AAGAAACAUGAGGAUCACCCAUGUAGAAAUAUGGGAGGAUAUACGAGGACGAAAGUCAAAGUAGAAGGCCUAAGAA [Mat - Same State 1 - Meechl mod - D130]	MS2 coat protein	66.9 nM

# get_value(readout='apparent KD of MS2 coat protein', item= AAAAUAUAAACAGAGGAUAUCCAAAGAACCACAUGAGGAUCACCCAUGUAAAGAAAGAAUAAGUGGGAGAAGGUUGAAAUAAUAA [Designing denovo 26] )
74.9 nM

Same lookup for UAAAAAAAAAGACAGGAUAUCCAAAAGAAAACAUGAGGAUCACCCAUGUAAAAGAAAAUAAAAUGGGAGAAGGGUCAAAAAAAAU [Mat - Same State 2 - JL mod - D79] , please.
53.5 nM

And AAUACACAUAGUCAGGAUAUCAAAAAUAAGACAUGAGGAUCACCCAUGUAAUAAGUAAAAGUAAAUGAGAAGGGACAGGGUGAAA [JR_SS002_Sub402] ?
79.3 nM
